target: Phospho-EGFR (Tyr1068) in H1975 cells (Homo sapiens, UniProt P00533, L858R/T790M)
Sequence (P00533 25-1210 T790M/L858R): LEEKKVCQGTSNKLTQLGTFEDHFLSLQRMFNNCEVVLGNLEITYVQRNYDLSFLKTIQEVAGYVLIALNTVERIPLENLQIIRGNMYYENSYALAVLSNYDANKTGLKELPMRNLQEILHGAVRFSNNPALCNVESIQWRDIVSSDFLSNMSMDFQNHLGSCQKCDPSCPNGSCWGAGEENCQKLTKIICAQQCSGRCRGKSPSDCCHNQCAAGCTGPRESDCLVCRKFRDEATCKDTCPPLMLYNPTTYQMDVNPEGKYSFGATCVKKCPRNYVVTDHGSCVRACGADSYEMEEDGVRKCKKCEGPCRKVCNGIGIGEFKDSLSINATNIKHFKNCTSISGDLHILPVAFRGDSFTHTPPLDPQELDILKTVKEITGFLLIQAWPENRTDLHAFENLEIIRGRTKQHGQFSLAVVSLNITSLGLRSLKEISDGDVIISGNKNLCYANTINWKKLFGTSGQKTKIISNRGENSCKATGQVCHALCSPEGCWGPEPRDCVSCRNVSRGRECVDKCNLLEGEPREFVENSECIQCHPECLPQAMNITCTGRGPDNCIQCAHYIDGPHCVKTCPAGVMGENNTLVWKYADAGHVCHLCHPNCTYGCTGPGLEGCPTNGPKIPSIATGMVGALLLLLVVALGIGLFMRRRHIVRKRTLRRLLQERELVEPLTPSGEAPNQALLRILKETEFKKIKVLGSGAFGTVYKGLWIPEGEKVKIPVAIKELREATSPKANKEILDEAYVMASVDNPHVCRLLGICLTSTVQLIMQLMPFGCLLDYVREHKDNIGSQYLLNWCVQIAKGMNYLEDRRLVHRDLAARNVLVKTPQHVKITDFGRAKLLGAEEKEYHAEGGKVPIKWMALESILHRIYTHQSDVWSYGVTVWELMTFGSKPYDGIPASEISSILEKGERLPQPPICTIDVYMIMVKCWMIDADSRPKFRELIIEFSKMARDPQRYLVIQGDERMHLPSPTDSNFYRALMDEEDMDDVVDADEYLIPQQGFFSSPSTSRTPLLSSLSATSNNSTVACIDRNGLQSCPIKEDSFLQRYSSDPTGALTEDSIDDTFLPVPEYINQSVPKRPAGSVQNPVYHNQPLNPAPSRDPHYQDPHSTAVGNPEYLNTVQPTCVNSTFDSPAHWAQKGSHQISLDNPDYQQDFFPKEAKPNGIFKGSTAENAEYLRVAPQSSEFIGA
test: HTRF pEGFR/total EGFR assay in H1975 cells
protocol conditions: compound 3 hours, ratio pEGFR/total EGFR
So I've got a bunch of compounds here, and I need their IC50 values.

Give IC50 for C#Cc1cc(NC(=O)NC2CCCC2)nc2nc(Nc3cccc4c3CN(C)C4)ncc12
> 3 µM

Write down IC50 measured for item C#Cc1c(C)c(OCC2CCCC2)nc2nc(Nc3ccc(N4CCN(C)CC4)cc3)ncc12
> 3 µM

Supply reported IC50 belonging to this compound: C#Cc1cc(NC(=O)N[C@H]2CCN(C(C)=O)C2)nc2nc(Nc3ccc(N4CCN(C)CC4)cc3)ncc12
1 to 3 µM

Using known records, supply IC50 for C#Cc1cc(NC(=O)NCc2ccnn2C)nc2nc(Nc3ccc(N4CCN(C)CC4)cc3)ncc12
< 0.5 µM

---

Give pIC50 for every item shown.
target: CtermHisTag-mEGFR Triple Mutant - C797S, L858R, T790M (Homo sapiens, UniProt P00533, C797S/L858R/T790M)
Sequence (P00533 25-1210 T790M/C797S/L858R): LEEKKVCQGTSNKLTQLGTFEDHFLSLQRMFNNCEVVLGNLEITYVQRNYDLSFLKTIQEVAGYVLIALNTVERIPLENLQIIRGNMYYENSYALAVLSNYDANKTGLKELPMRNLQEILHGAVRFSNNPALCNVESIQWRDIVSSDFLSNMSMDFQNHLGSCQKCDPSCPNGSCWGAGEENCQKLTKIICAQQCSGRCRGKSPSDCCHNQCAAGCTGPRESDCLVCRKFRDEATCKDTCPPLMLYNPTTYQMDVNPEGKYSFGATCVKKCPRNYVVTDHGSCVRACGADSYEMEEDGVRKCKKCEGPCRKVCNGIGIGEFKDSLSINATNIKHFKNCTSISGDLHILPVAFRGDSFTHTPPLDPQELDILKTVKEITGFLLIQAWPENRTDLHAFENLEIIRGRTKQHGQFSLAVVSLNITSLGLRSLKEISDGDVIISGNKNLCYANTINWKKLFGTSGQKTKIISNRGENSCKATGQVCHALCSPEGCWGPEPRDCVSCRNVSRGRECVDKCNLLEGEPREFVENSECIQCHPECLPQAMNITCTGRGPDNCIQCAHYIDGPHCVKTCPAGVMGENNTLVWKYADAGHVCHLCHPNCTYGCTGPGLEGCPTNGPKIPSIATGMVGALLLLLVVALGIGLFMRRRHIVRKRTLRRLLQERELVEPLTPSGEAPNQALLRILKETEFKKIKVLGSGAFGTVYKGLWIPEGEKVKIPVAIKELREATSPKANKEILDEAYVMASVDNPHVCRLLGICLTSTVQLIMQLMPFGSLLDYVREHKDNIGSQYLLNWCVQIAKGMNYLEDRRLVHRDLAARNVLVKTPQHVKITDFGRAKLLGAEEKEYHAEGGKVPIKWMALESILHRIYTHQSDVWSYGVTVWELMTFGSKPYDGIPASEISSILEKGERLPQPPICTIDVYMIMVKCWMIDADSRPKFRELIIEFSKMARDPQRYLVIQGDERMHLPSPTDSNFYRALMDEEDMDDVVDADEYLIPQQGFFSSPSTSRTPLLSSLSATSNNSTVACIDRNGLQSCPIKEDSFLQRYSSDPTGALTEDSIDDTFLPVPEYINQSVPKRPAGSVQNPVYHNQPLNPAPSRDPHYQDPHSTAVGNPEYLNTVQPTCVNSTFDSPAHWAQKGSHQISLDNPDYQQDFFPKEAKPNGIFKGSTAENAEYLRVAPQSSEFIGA
test: TR-FRET probe displacement assay, EGFR triple mutant
protocol conditions: T790M 1.25 nM, probe 100 nM, 30 mins room temperature
Procedure: Compounds (dissolved to 100 mM in DMSO) were dispensed into black low volume 384 well assay plates (Corning) over a final concentration range of 100000, 30000, 10000, 3000, 1000, 300, 100, 30, 10, and 3 nM using an Echo 550 (Labcyte). Positive control compound and DMSO as a negative control were dispensed into the first and last well, respectively. […] Plates were read using a PheraStar FS (BMG Labtech) at Ex337 nm Ex490/520 nm. The data were analysed using Graphpad Prism/Dotmatics Studies Software. […]
pIC50: −log10 of the molar value.

Fill in reported pIC50 for this entry: C#Cc1cc(NC(=O)NC2CCCC2)nc2nc(Nc3cccc(CN4CC(CS(C)(=O)=O)C4)c3)ncc12 [Example 85]
7.00 to 7.70

Input C#Cc1cc(Nc2nccn2C2CCCC2)nc2nc(Nc3ccc(N4CCN(C)CC4)cc3)ncc12 [Example 27] , output reported pIC50.
7.00 to 7.70

Using known records, supply pIC50 for C#Cc1cc(N2C(=O)OCC2C(C)C)nc2nc(Nc3ccc(N4CCN(C)CC4)cc3)ncc12 (centres unmarked) [Example 68]
> 7.70

Give reported pIC50 value for C#Cc1cc(OC2CCC2)nc2nc(Nc3ccc(N4CCN(C)CC4)cc3)ncc12 [Example 18]
7.00 to 7.70

Return pIC50 for the following compound: C#Cc1cc(N2C(=O)NCC23CCCC3)nc2nc(Nc3ccc(S(=O)(=O)N(C)C)cc3)ncc12 [Example 97]
7.00 to 7.70

Fill in reported pIC50 for this entry: C#Cc1cc(OC)nc2nc(Nc3ccc(N4CCN(C)CC4)cc3)ncc12 [Example 3]
6.00 to 7.00

Specify pIC50 for C#Cc1cc(NC(=O)NC2CCCC2)nc2nc(Nc3ccc(S(=O)(=O)N(C)CCN(C)C)cc3)ncc12 [Example 84] and stop.
> 7.70

Supply pIC50 value. Item: C#Cc1cc(-n2cccc2)nc2nc(Nc3ccc(N4CCN(C)CC4)cc3)ncc12 [Example 36]
> 7.70

Note pIC50 for the compound shown: C#Cc1cc(OCc2ccccc2)nc2nc(Nc3ccc(N4CCN(C)CC4)cc3)ncc12 [Example 20]
6.00 to 7.00

Output pIC50 of C#Cc1cc(NC(=O)NCC2CCOC2)nc2nc(Nc3ccc(N4CCN(C)CC4)cc3)ncc12 (centres unmarked) [Example 51]
> 7.70

Please give the documented pIC50 of C#Cc1cc(N2C(=O)N(C)CC23CCCC3)nc2nc(Nc3ccc(N(C)C(=O)CN(C)C)cc3)ncc12 [Example 106]
6.00 to 7.00

Quickly give me recorded pIC50 for C#Cc1cc(NC(=O)NC2COC2)nc2nc(Nc3ccc(N4CCN(C)CC4)cc3)ncc12 [Example 43]
> 7.70

Item C#Cc1cc(OC2CCCCC2)nc2nc(Nc3ccc(N4CCN(C)CC4)cc3)ncc12 [Example 14] : provide pIC50
6.00 to 7.00

Please give the documented pIC50 of C#Cc1cc(NC(=O)NCc2ccccc2)nc2nc(Nc3ccc(N4CCN(C)CC4)cc3)ncc12 [Example 39]
> 7.70

Output measured pIC50 for this item: C#Cc1cc(NC(=O)NC2CCCC2)nc2nc(Nc3cccc(CN4CCC(CS(C)(=O)=O)CC4)c3)ncc12 [Example 87]
7.00 to 7.70

Let me know recorded pIC50 for C#Cc1cc(OCc2cscn2)nc2nc(Nc3ccc(N4CCN(C)CC4)cc3)ncc12 [Example 13] , thanks.
7.00 to 7.70

Identify the reported pIC50 for the following entry. C#Cc1cc(NC(=O)NC2CCCC2)nc2nc(Nc3ccccc3N3CCC(CS(C)(=O)=O)CC3)ncc12 [Example 90]
4.30 to 6.00

Supply reported pIC50 belonging to this compound: C#Cc1c(C)c(NC(=O)NC2CCCC2)nc2nc(Nc3ccc(N4CCN(C)CC4)cc3)ncc12 [Example 72]
> 7.70

For the compound C#Cc1cc(OC)nc2nc(Nc3cccc(CN(C)C4CCC4)c3)ncc12 [Example 4] , report pIC50.
6.00 to 7.00

Assign pIC50 to the following record: C#Cc1cc(NC(=O)NC2(C)CCOC2)nc2nc(Nc3ccc(N4CCN(C)CC4)cc3)ncc12 (centres unmarked) [Example 62]
> 7.70

State, in one line, measured pIC50 of C#Cc1cc(NC(=O)Nc2ncc[nH]2)nc2nc(Nc3ccc(N4CCN(C)CC4)cc3)ncc12 [Example 59]
> 7.70

Write down pIC50 measured for item C#Cc1cc(-n2ccnc2)nc2nc(Nc3ccc(N4CCN(C)CC4)cc3)ncc12 [Example 35]
> 7.70

Return pIC50 for the following compound: C#Cc1cc(OC)nc2nc(Nc3ccc(N4CCN(C)CC4)c(NCc4ccn(C)n4)c3)ncc12 [Example 11]
6.00 to 7.00

Return the recorded pIC50 value; entry: C#Cc1cc(N2C(=O)OCC2CC2CCCC2)nc2nc(Nc3ccc(N4CCN(C)CC4)cc3)ncc12 (centres unmarked) [Example 112]
> 7.70

Answer with the recorded pIC50 for the compound listed here: C#Cc1cc(NC(=O)N2CCCC2)nc2nc(Nc3ccc(N4CCN(C)CC4)cc3)ncc12 [Example 56]
6.00 to 7.00

Tell me its pIC50 given C#Cc1cc(N2C(=O)N(C)CC23CCCC3)nc2nc(Nc3ccc(S(=O)(=O)N(C)C)cc3)ncc12 [Example 109] as the entry.
6.00 to 7.00

Supply reported pIC50 belonging to this compound: C#Cc1cc(NC(=O)NC2(C)COC2)nc2nc(Nc3ccc(N4CCN(C)CC4)cc3)ncc12 [Example 61]
> 7.70

State, in one line, measured pIC50 of C#Cc1cc(NC(=O)c2ccccc2)nc2nc(Nc3ccc(N4CCN(C)CC4)cc3)ncc12 [Example 29]
7.00 to 7.70

For the compound C#Cc1cc(N2C(=O)OCC2C2CCCC2)nc2nc(Nc3ccc(N4CCN(C)CC4)cc3)ncc12 (centres unmarked) [Example 111] , report pIC50.
> 7.70

Find the measured pIC50 of C#Cc1cc(N2C(=O)NCC23CCCC3)nc2nc(Nc3ccc(OCCN(C)C)cc3)ncc12 [Example 95] and report it.
7.00 to 7.70

Give the value of pIC50 reported for the following: C#Cc1cc(NC(=O)N2Cc3ccccc3C2)nc2nc(Nc3ccc(N4CCN(C)CC4)cc3)ncc12 [Example 58]
6.00 to 7.00

Using known records, supply pIC50 for C#Cc1cc(OC)nc2nc(Nc3ccc(N4CCN(C)CC4)c(NC4CCC4)c3)ncc12 [Example 8]
7.00 to 7.70
